- Test system: A549 NSCLC
- PROTOCOL_TEXT: NCI tumour cell line growth inhibition, 48 h
So I've got a bunch of molecules here, and I need their TGI values.
One number for each entry, in µM.

Consider the worked cases shown below.
MOLECULE | TGI [µM]
COc1cc(C)c(C)c(OC(=O)c2c(C)c(C)c(OC)c(C)c2OC)c1C | 71.8
NC(=S)N1N=C(c2ccccc2O)CC1c1ccccc1 (stereo unspecified) | 84.6

Could you now look at the following molecule, please?
Given O=C(O)c1cc(Cc2ccc(O)c(C(=O)O)c2)ccc1O (tested in a mixture with another compound) , report its TGI on A549 NSCLC.
28
